Origin of measurements: the nanobody polyreactivity screen of Harvey et al. (2022)

assay: yeast display, Sf9 membrane polyspecificity reagent, FACS + sequencing; frameworks hold sequencing errors
measure-name: polyreactivity (PSR sort gate)

>>> value_observed("QVQLVESGGGLVQAGGSLRLICAASGFIFIGYAMGWYRQARGKERELVAAISWRGGTYYADSVKGRFTISRDNAKNSVYLQMNSLKPEDTAVYYCAARTRNAVRSGSGKYDYCGQGTQVTVSS")
"low polyreactivity"
>>> value_observed("QVQLVESGGGLVQAGGSLRLSCAASGRIFYRYAMGWYRQAPGKERELVAAITIGGRTNYADSVKGRFTISRDNAKNTVYLQMNSLKPEDTAVYYCAVVLYTRYPPRVRYYYWGQGTQVTVSS")
"high polyreactivity"
>>> value_observed("QVQLVESGGGLVQAGGSLRLSCAASGITFGYYAMGWSRQAPGKERELVAAISSGGRTNYADSVKGRFTISRDNAKNTVYLQMISLKPEDTAVYYCAASTHHPGYPPDVLYDEYEYWGQGTQVTVSS")
"low polyreactivity"
>>> value_observed("QVQLVESRGGLVPAGGSLRLSCAASGITFYHYAIGWYRQAPVKERELVAAISRSGGSTSYADSVKGRLTISRDNAKITVYLEMNSLIPEDTAVYYCAARLVRESEPLGYWGQGTQVTVSS")
"high polyreactivity"

# polyreactivity (PSR sort gate) lookup, item QVLLQESGGGLVQAGGSLRLCCAASGYISGDQFMGWYRQAPGKEREFVAGIGNGTNTNYADSVKGRFTTSRDNAKNTVYLQMNSLKPEDTAVYYCAADPSDGSTLAYWGQGTQVTVSS
high polyreactivity

----------
test: yeast display, Sf9 membrane polyspecificity reagent, FACS + sequencing; frameworks hold sequencing errors
measure-name: polyreactivity (PSR sort gate)

Please review the entries below; each comes with its answer.
>>> value_observed("QVQLVESGGGLVQAGGSLRLTCAASGRTFTTYAMGWYRQAPGKERELFAAISGSGGSTYYADSVKGRFTISRDNAKNTVYLQMNSLKPEGTAVYYCATAYYYHGGYYYPYDDYWGQGTQVTVSS")
"low polyreactivity"
>>> value_observed("QVQLVESGGGLVQAGGSLRLSCAASGITFNYAMGWYRQAPGKERELVAAISRRGGSTYYADSVKGRFTISRDNAKNTVYLQMNSLKPEDTAVYYCNTTVWGSYYYWGQGTQVTVSS")
"high polyreactivity"
>>> value_observed("QVQLVQSGGGLVQAGGSLSLSCAASGSTFSTYAMGWYRQAPGKERELVATISKSGGSTYYSDSVKGRFTISRDNAKNTVYLQMNSLKPEDTAVYYCNARYQSRYFIYDYWGQGTQVTVSS")
"high polyreactivity"
>>> value_observed("QVQLVESGGGLVQAGGSLRLSCAASGSISDVYAMGWYRQAPGKERELVAAYADSVKGRFTISRDNAKNTVYLQMNCLKPVDTAVYYCNFVETSQELGWQAFDYWGQGTQVTVSS")
"low polyreactivity"
>>> value_observed("QVQLVESVGGLVQAGGSLRLSCAASGRTLSYYAMGRYRQAPGKVRELVAAISRRGGSTYYADSVKGRFTISRDKAKNTVYLQMNCLQSKDTAFYYCAATVGNAADYDYGYWGQGTQVTVSS")
"high polyreactivity"

Batch request: polyreactivity (PSR sort gate) per item, same order as input.
1. QVQLVESGGGLVQAGGSLRLSCAPSGSIFDCNAMGWYRQAPGKERELVAAISVSGGSTYYADSVKGRFTISRDNAKNTVYLQMNSLKPEDKAVYYCAAETWTDGWYYDYWGQGTQVTVSS
2. QVQLVESGGGLVQAGGSLRLSCDASGFIFTGNVMGWYRQAPGKERELVAGITYTSGSTYYADSVKGRFTISRDYAKNTVYLQMNSLKPEDTAVYYCAAEITRHYVFGDDYWGQGTQVTVSS
3. QVQLVESGGGLVQAGGSLRLSCAASGFILVFYARGWYRPAPGKERELVAAIDWSGTITYYADSVKGRFTISRDNAKNTVYLQMNSLKPEDTAVYYCAADGEPFYDFYYWGQGTQVTVSS
4. QVQLVESGGGLVQAGGSLRLSCAASGLIFYRNAMGWYRQAPGKERELVAAISKNGGNTYYADSVKGRFTISRDNAKNTVFLQMNSLKTEDTAVYYCAARELYGPFGYWGQGTQVTVSS
5. QVQLVESGGGLVQAGGILRISSDSSGSIFTFYAMGCYRQEPGKERELFAAISYGGGITYYADSVKGRFSISRDNAKNTVYLQMNSLKPEDTAVFYCAGDDGYYNLYFDYDYWGQGTQVTVSS

["high polyreactivity", "low polyreactivity", "high polyreactivity", "high polyreactivity", "low polyreactivity"]

# polyreactivity (PSR sort gate) lookup, item QVQLVESGGGLVQAAGSLRLTCAASGRTFYDNVKGWYRQAPGKERELVAAISSGGSTNYADSVKGRFTISRDNAKNTVYLQMNSLKPEDTAVYYCATTGGGGWAYEYWGQGTQVTVSS
low polyreactivity

----------
assay: yeast display, Sf9 membrane polyspecificity reagent, FACS + sequencing; frameworks hold sequencing errors
measure-name: polyreactivity (PSR sort gate)

>>> value_observed("QVQLVESGGGLVQEGGSLRLSCAASGSIFGVYTMGWYRPEPGKERELVAAINWGGTSTYYADSVKGRFTISRDNAKNTVYLQMNSLKPEDTAVYYCNAERRRRYPYNYWGHGTQVTVSS")
"high polyreactivity"
>>> value_observed("QVQLVESGGGLVQAGGSLRLSCAASGSTFPGNALGSYRQAPGKERELVAAIRDRGTSTYYADSVKGRFTISRDNAKNTFYLQMNSLKPEDTAVYYCAASSSNKEYDYWGQGTQVTVSS")
"high polyreactivity"
>>> value_observed("QVQLVESGGGLVQAGGSLRLSCAASGSIFFYYAMGWYRQAPGKDRELVAAITSSGDSTYYADSVKGRFTISRDNAKNTVYLQMNSLKPEDTAVYYCAALYIGYTGYYYWGQGTQVTVSS")
"low polyreactivity"
>>> value_observed("QVQLEESGGGLVQAGGSLRLSCAGSGRNFGVNTMRWYRQATGKERDLVAAISFSGVSTYYADSVKGRFTISRDNAKNTVYLQMNSLKPEDTPVYYCAAVPYRQYPCGGYWGQGTQVTVSS")
"low polyreactivity"

Would you kindly look at the next entry?
# polyreactivity (PSR sort gate) lookup, item QVQLVESGGGLVQPGGSLRLSCAASGFIFLGYAMGWYRQAPGKERELVATITWRGGSTYYADSVKGRFTISRDNAKNTVYLQMNSLIPEDTADYYCAATRGWLHSFARDDHDYWGQGTQVTVSS
high polyreactivity

----------
assay: yeast display, Sf9 membrane polyspecificity reagent, FACS + sequencing; frameworks hold sequencing errors
measure-name: polyreactivity (PSR sort gate)

>>> value_observed("QVQLVESGGGLVQAGGSLRLSCAASGSIFRGYTMGWYRQAPGKERELVAAISWSGGSTYYADSVKGRFTISRDNAKNTVYLQMNSLKPEDTAVYYCAAGDYYHRIFLWYDYWGQGTQVTVSS")
"low polyreactivity"
>>> value_observed("QVQLVESGGGLVQAGGSLRLSCAASGSIFFYNAMGWYRQAPGKERELVAAITTRGGSTYYADSVKGRFTISRDNAKNTVYLQMNSLKPEATAVYYCARSSRGKLVYWGQGTQVTVSS")
"low polyreactivity"
>>> value_observed("QVQLVESGGGLVQAGGSLRLSCAASGSILGSNAMGWYRQPPGKESEFVAAITTITGSTYYADSVKGRFTISRDNAKNTVYLEMNSLKPEDTAVYYCNADAHESTDYTLYFSGPYYYWGQGTQVTVSS")
"low polyreactivity"

----------
assay: yeast display, Sf9 membrane polyspecificity reagent, FACS + sequencing; frameworks hold sequencing errors
measure-name: polyreactivity (PSR sort gate)

Please review the entries below; each comes with its answer.
>>> value_observed("QVQLVESGGGLVQAGGSLRLSCAASGSTFRPNAMGWYRQAPGKERELVAAINRGGRTNYADSVKGRFTISRDNAKNTVYLQMISLKPEDTAVYYCAAYIAGRYGARGYDYWGQGTQVTVSS")
"high polyreactivity"
>>> value_observed("QVQLVESGGGLVQAGGSLRLSCAASGSTFEYYAMGWYRQAPGKERELVAAITRSGSRTRYADSVKGRFTISRDNAKNTVYLQMNSLKPEDTAVYYCARLSSARYPFDSWGQGTQVTVSS")
"high polyreactivity"
>>> value_observed("QVQLVESGGGLVQAGGSLRLSCAASGRIFFRNTMGWYRQAPGKERELVAAISGSGGSTYYADSVKGRFTISRDNAKNTVYLQMNSLKPEDTAVYYCAKRWLYPISYDYWGQGTQVTVSS")
"high polyreactivity"
>>> value_observed("QVQLVESGGGLVQAGGSLRLSCAASGLIFDYYGMGWYRQAPGKEREFVAAINRSGGTTYYADSVKGRFTISRDNAKNTVYLQMNSLKPEDTAVYYCNADRGPAKLVYDPVIMDYWGQGTQVTVSS")
"low polyreactivity"
>>> value_observed("QVQLGESGGGLVQAGGSLRLSCAASGNTFFTYAMGWYRQAPGKERELVAVITSVGSTNYADSVKGRFTISRDNAKNTVYLQMNSLKPEDTAVYYCAARTRRGLARYDYWGHGTQVTVSS")
"high polyreactivity"
>>> value_observed("QVQLVESGGGLVQAGGSLRLSCAASGSTFDYNAMGWYRQAPGKERELVAAISRGGNTDYADSVKGRFTISRDNAKNSVYLQMNSLKPEDTAVYYCAADALLEWFDVAYFAYEYWGQGTQVTVSS")
"low polyreactivity"
>>> value_observed("QVQLVESGGGIVQAGGSLRLSCAASGRTFYRNAMGWYRPAPGKERELFAVISLNGGRTYYADSVKGRFTISRDNAKNTVYLQMNSLKPEDTAVYYCNKLTGPVFTRGFYYWGQGTQVTVSS")
"high polyreactivity"
>>> value_observed("QVQLVESGGGLVQAGGSLRLSCAASGRIFGEYALGWYRQDPGKERELVARISRSGGSTYADSVKGRFTISRDNAKNTVYFQMNSLKPEVTAVYYCNADAYGTPEFTSYAVRYDYWGQGTQVTVSS")
"low polyreactivity"
>>> value_observed("QVQLVESGGGLVQAGGSLRLSCAASGLTFPKYAMGWYRQAPGKERELVAAITQRGGSTYYADSVKGRFTISRDNAKNTVYLQMNSLNPEDTAVYYSNARRRDYNNRREFDYWGQGTQVTVSS")
"high polyreactivity"
>>> value_observed("QVQLVESGGGLVQAGGSLRLSCAASGIIFIYYTMGWYRQAPGTDRELVAVITTSGDGTYYADSVKGRFTISRDNAKNTGYLQMNSLKPEDTSVYYCAASYSTWVSTRNDYWGQGTQVTVSS")
"low polyreactivity"

Batch request: polyreactivity (PSR sort gate) per item, same order as input.
1. QVKLVESGGGLVQAGGSLRLSCAASGRIFYYNAMGWYRQAPGKERELVSAIRVRGGSTYYADSVKGRFTISRDNAKNTVYLQMNSLNPEDTAVYYCNSSDYKISATNAVVRYYYWGQGTQVTVSS
2. QVQLVESGGGLVQAGGSLRLSCAASGFTFKYNAMGWYRQAPGKERELVAGITLRGGSTYYADSVKGRFTISRDNAKNTVYLQMNSLKPEDTAVYYCGAAASNWREYWYWGQGTQVTVSS
3. QVQVVESGGGLVQAGGSLRLSSAASGSTFNYNAMGWYRQAPGKERELVAAITNGGSTSYADSVKGRFTISRDNAKNTVYLQMNSLKPEDTAVYYCNADEDLRGYDYWGQGTQVTVSS
4. QVQLVESGGGLVQAGGSLRLSCAASGRIFYRYVMGWYRQAPGKERELVAAITSSGGSTYYADSVKGRFTISRDNAKNTVYLQMNSLNPEDTAVYYCAADRYTRYRYNYWGQGTQVTVSS
5. QVQLVESGGGLVQAGGSLRLSCAASGSPFSVYAMGWYRQAPGKERELVAAISWTVGSTYYADSVKGRFTISRDTAKNTVYLQMNSLIPEDTAVYYCAADIYWHYDYWGQGTQVTVSS
6. QVQLVESGGGLVQAGGTLRLSCAATGFTFYEYAMGWYRQAPGKERELVAGIRRSGDSTYYADSVKGRFTISRDNAKNTVYLQMNILKPEDTAVYYCAKGWYRIKRNDYWGQGTQVTVSS

1. high polyreactivity
2. low polyreactivity
3. low polyreactivity
4. high polyreactivity
5. high polyreactivity
6. low polyreactivity
